Values compiled from patent US20230008368A1.

# assay_target: hTLR8 (Homo sapiens)
# Construct: expressed in transfected cells; host or cells: HEK-Blue hTLR cells
# Sequence (Q9NR97 27-1041): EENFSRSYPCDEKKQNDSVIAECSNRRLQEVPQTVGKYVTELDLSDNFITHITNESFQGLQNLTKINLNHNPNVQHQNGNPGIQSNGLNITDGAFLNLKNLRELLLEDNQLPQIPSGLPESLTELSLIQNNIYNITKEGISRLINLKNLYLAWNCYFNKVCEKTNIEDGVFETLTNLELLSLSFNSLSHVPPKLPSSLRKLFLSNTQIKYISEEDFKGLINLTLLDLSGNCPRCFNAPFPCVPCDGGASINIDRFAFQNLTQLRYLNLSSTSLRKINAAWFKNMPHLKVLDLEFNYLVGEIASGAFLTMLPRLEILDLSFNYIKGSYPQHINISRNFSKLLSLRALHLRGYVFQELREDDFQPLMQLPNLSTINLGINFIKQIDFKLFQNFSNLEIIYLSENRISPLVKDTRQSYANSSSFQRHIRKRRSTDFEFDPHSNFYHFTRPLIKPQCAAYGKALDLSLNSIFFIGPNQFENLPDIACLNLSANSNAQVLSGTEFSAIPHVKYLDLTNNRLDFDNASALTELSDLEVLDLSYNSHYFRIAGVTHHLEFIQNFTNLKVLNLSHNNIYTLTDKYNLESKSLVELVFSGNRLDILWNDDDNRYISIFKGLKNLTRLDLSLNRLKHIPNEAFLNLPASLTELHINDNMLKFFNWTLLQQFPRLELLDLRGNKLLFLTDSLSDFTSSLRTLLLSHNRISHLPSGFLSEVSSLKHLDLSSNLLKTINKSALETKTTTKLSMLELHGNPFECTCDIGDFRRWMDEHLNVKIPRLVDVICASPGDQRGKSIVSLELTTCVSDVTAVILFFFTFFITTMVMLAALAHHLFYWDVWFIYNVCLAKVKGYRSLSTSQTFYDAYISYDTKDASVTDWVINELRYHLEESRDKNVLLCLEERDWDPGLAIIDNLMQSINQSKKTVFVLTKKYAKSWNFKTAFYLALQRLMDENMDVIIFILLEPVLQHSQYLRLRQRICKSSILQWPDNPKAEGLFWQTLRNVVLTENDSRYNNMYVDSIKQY
# assay_overview: agonistic activity on hTLR8, HEK-Blue hTLR cells, SEAP reporter (QUANTI-Blue)
# Format: cell-based
# study_conditions: ratio of TLR 7 EC50 to TLR 8 EC50
Kindly supply the reported TLR 8 selectivity TLR 7/TLR 8 values for the records listed here.

Can you share its TLR 8 selectivity TLR 7/TLR 8? I mean this compound: CCOCc1nc2c(N)nc3ccccc3c2n1C[C@@H](C)O[P@](=O)(N[C@@H](C)C(=O)OC(C)C)Oc1ccccc1 (single isomer, unassigned) [Example 3A]
>3.3

Can you share its TLR 8 selectivity TLR 7/TLR 8? I mean this compound: CCOCc1nc2c(N)nc3ccccc3c2n1C[C@@H](C)O[P@@](=O)(N[C@@H](C)C(=O)OC(C)C)Oc1ccc2ccccc2c1 (single isomer, unassigned) [Example 6A]
1301

Can you share its TLR 8 selectivity TLR 7/TLR 8? I mean this compound: CCOCc1nc2c(N)nc3ccccc3c2n1C[C@@H](C)O[P@@](=O)(N[C@@H](C)C(=O)OC(C)(C)C)Oc1ccccc1 (single isomer, unassigned) [Example 14A]
43
